Data origin, for the record: ChEMBL document CHEMBL4270513

Target of assay: Melanocyte-stimulating hormone receptor (Homo sapiens, UniProt Q01726)
Sequence (Q01726 whole entry): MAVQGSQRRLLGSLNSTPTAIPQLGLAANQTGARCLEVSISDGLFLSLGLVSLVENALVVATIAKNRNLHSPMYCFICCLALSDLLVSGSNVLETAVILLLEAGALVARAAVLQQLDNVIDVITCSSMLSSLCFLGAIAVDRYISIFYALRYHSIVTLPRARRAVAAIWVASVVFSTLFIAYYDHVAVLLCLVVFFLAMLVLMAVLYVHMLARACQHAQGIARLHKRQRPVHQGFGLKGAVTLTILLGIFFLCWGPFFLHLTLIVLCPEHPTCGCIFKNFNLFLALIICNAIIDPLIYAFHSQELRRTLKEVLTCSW
Assay summary: Agonist activity at human MC1R expressed in HEK293 cells after 3 mins by cAMP assay
pEC50: −log10 of the molar value. Square brackets hold non-standard residues; d marks the D form. Peptide text beside a SMILES is read from it. dPhe(4-Br) = N[C@H](Cc1ccc(Br)cc1)C(=O)O; dPhe(4-Cl) = N[C@H](Cc1ccc(Cl)cc1)C(=O)O; dPhe(4-F) = N[C@H](Cc1ccc(F)cc1)C(=O)O; d2Nal = N[C@H](Cc1ccc2ccccc2c1)C(=O)O; Nle = CCCC[C@H](N)C(=O)O
# pEC50 >= 7 gives true, anything below gives false

Molecule	Assigned label
CCCC[C@H](NC(=O)[C@@H](Cc1ccc(Cl)cc1)NC(=O)[C@@H]1CCCN1C(C)=O)C(=O)N[C@@H](Cc1c[nH]c2ccccc12)C(N)=O (Ac-P[dPhe(4-Cl)][Nle]W-NH2)	true
CCCC[C@H](NC(=O)[C@@H](Cc1ccc(Br)cc1)NC(=O)[C@H](Cc1cnc[nH]1)NC(C)=O)C(=O)N[C@@H](Cc1c[nH]c2ccccc12)C(N)=O (Ac-H[dPhe(4-Br)][Nle]W-NH2)	true
CCCC[C@H](NC(=O)[C@@H](Cc1ccc(F)cc1)NC(=O)[C@H](Cc1cnc[nH]1)NC(C)=O)C(=O)N[C@@H](Cc1c[nH]c2ccccc12)C(N)=O (Ac-H[dPhe(4-F)][Nle]W-NH2)	true
CCCC[C@H](NC(=O)[C@@H](Cc1ccc2ccccc2c1)NC(=O)[C@H](Cc1cnc[nH]1)NC(C)=O)C(=O)N[C@@H](Cc1c[nH]c2ccccc12)C(N)=O (Ac-H[d2Nal][Nle]W-NH2)	false
CCCC[C@H](NC(=O)[C@@H](Cc1ccc(F)cc1)NC(=O)[C@@H]1CCCN1C(C)=O)C(=O)N[C@@H](Cc1c[nH]c2ccccc12)C(N)=O (Ac-P[dPhe(4-F)][Nle]W-NH2)	false
CCCC[C@H](NC(=O)[C@@H](Cc1ccc(Br)cc1)NC(=O)[C@@H]1CCCN1C(C)=O)C(=O)N[C@@H](Cc1c[nH]c2ccccc12)C(N)=O (Ac-P[dPhe(4-Br)][Nle]W-NH2)	false
CCCC[C@H](NC(=O)[C@@H](Cc1ccccc1)NC(=O)[C@H](Cc1cnc[nH]1)NC(C)=O)C(=O)N[C@@H](Cc1c[nH]c2ccccc12)C(N)=O (Ac-H[dF][Nle]W-NH2)	true

====

Target of assay: Melanocortin receptor 3 (Homo sapiens)
Sequence (P41968 whole entry): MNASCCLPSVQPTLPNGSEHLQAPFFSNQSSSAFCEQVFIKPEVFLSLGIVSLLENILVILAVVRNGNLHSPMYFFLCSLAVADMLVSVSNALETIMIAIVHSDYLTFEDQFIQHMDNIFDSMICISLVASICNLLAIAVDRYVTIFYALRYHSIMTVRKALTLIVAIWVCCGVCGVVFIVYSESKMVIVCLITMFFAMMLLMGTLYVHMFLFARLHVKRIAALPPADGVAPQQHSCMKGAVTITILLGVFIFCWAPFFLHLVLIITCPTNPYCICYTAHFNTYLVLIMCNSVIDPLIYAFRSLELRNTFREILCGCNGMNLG
Assay summary: Agonist activity at human MC3R expressed in HEK293 cells at 10 uM after 3 mins by cAMP assay relative to MT-2
Type: functional, cell-based
Square brackets hold non-standard residues; d marks the D form. Peptide text beside a SMILES is read from it. dPhe(4-CF3) = N[C@H](Cc1ccc(C(F)(F)F)cc1)C(=O)O; dPhe(4-Br) = N[C@H](Cc1ccc(Br)cc1)C(=O)O; dPhe(4-Cl) = N[C@H](Cc1ccc(Cl)cc1)C(=O)O; dPhe(4-F) = N[C@H](Cc1ccc(F)cc1)C(=O)O; Nle = CCCC[C@H](N)C(=O)O
# Activity >= 80% gives y, anything below gives n

Compound	Target of assay	Assigned label
CCCC[C@H](NC(=O)[C@@H](Cc1ccc(C(F)(F)F)cc1)NC(=O)[C@@H]1CCCN1C(C)=O)C(=O)N[C@@H](Cc1c[nH]c2ccccc12)C(N)=O (Ac-P[dPhe(4-CF3)][Nle]W-NH2)	Melanocortin receptor 3 (Homo sapiens)	n
CCCC[C@H](NC(=O)[C@@H](Cc1ccc(C(F)(F)F)cc1)NC(=O)[C@H](Cc1cnc[nH]1)NC(C)=O)C(=O)N[C@@H](Cc1c[nH]c2ccccc12)C(N)=O (Ac-H[dPhe(4-CF3)][Nle]W-NH2)	Melanocortin receptor 3 (Homo sapiens)	y
CCCC[C@H](NC(=O)[C@@H](Cc1ccc(Br)cc1)NC(=O)[C@H](Cc1cnc[nH]1)NC(C)=O)C(=O)N[C@@H](Cc1c[nH]c2ccccc12)C(N)=O (Ac-H[dPhe(4-Br)][Nle]W-NH2)	Melanocortin receptor 3 (Homo sapiens)	y
CCCC[C@H](NC(=O)[C@@H](Cc1ccc(Cl)cc1)NC(=O)[C@H](Cc1cnc[nH]1)NC(C)=O)C(=O)N[C@@H](Cc1c[nH]c2ccccc12)C(N)=O (Ac-H[dPhe(4-Cl)][Nle]W-NH2)	Melanocortin receptor 3 (Homo sapiens)	y
CCCC[C@H](NC(=O)[C@@H](Cc1ccc(F)cc1)NC(=O)[C@@H]1CCCN1C(C)=O)C(=O)N[C@@H](Cc1c[nH]c2ccccc12)C(N)=O (Ac-P[dPhe(4-F)][Nle]W-NH2)	Melanocortin receptor 3 (Homo sapiens)	n

====

Target of assay: UniProt P41968
Assay summary: Agonist activity at human MC3R expressed in HEK293 cells at 10 uM after 3 mins by cAMP assay relative to MT-2
Type: functional, cell-based
Square brackets hold non-standard residues; d marks the D form. Peptide text beside a SMILES is read from it. dPhe(4-Cl) = N[C@H](Cc1ccc(Cl)cc1)C(=O)O; dPhe(4-F) = N[C@H](Cc1ccc(F)cc1)C(=O)O; Nle = CCCC[C@H](N)C(=O)O
Value kind: Activity (%)

Compound	Unit tag	Test result
CCCC[C@H](NC(=O)[C@@H](Cc1ccccc1)NC(=O)[C@H](Cc1cnc[nH]1)NC(C)=O)C(=O)N[C@@H](Cc1c[nH]c2ccccc12)C(N)=O (Ac-H[dF][Nle]W-NH2)	%	100
CCCC[C@H](NC(=O)[C@@H](Cc1ccc(F)cc1)NC(=O)[C@H](Cc1cnc[nH]1)NC(C)=O)C(=O)N[C@@H](Cc1c[nH]c2ccccc12)C(N)=O (Ac-H[dPhe(4-F)][Nle]W-NH2)	%	100
CC(=O)N[C@@H](Cc1cnc[nH]1)C(=O)N[C@H](Cc1ccccc1)C(=O)N[C@@H](CCCNC(=N)N)C(=O)N[C@@H](Cc1c[nH]c2ccccc12)C(N)=O	%	100
CCCC[C@H](NC(=O)[C@@H](Cc1ccc(Cl)cc1)NC(=O)[C@@H]1CCCN1C(C)=O)C(=O)N[C@@H](Cc1c[nH]c2ccccc12)C(N)=O (Ac-P[dPhe(4-Cl)][Nle]W-NH2)	%	23.1

====

Target of assay: Melanocortin receptor 4 (Homo sapiens, UniProt P32245)
Sequence (P32245 whole entry): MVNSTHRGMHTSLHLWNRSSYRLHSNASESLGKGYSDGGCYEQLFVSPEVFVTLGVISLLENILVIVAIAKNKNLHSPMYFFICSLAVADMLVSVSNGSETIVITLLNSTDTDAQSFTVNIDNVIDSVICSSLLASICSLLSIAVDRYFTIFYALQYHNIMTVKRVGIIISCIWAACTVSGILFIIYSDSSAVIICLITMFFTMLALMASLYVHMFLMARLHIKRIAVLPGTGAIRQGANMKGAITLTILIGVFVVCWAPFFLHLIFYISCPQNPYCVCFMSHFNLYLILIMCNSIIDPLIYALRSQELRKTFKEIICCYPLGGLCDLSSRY
Assay summary: Agonist activity at human MC4R expressed in HEK293 cells after 3 mins by cAMP assay
Type: functional, cell-based
pEC50: −log10 of the molar value. Square brackets hold non-standard residues; d marks the D form. Peptide text beside a SMILES is read from it. dPhe(4-CF3) = N[C@H](Cc1ccc(C(F)(F)F)cc1)C(=O)O; dPhe(4-Br) = N[C@H](Cc1ccc(Br)cc1)C(=O)O; dPhe(4-Cl) = N[C@H](Cc1ccc(Cl)cc1)C(=O)O; dPhe(4-F) = N[C@H](Cc1ccc(F)cc1)C(=O)O; Nle = CCCC[C@H](N)C(=O)O
# pEC50 >= 7 gives y, anything below gives n

Compound	Assigned label
CCCC[C@H](NC(=O)[C@@H](Cc1ccc(F)cc1)NC(=O)[C@H](Cc1cnc[nH]1)NC(C)=O)C(=O)N[C@@H](Cc1c[nH]c2ccccc12)C(N)=O (Ac-H[dPhe(4-F)][Nle]W-NH2)	n
CCCC[C@H](NC(=O)[C@@H](Cc1ccc(Cl)cc1)NC(=O)[C@H](Cc1cnc[nH]1)NC(C)=O)C(=O)N[C@@H](Cc1c[nH]c2ccccc12)C(N)=O (Ac-H[dPhe(4-Cl)][Nle]W-NH2)	y
CCCC[C@H](NC(=O)[C@@H](Cc1ccc(C(F)(F)F)cc1)NC(=O)[C@H](Cc1cnc[nH]1)NC(C)=O)C(=O)N[C@@H](Cc1c[nH]c2ccccc12)C(N)=O (Ac-H[dPhe(4-CF3)][Nle]W-NH2)	n
CCCC[C@H](NC(=O)[C@@H](Cc1ccccc1)NC(=O)[C@H](Cc1cnc[nH]1)NC(C)=O)C(=O)N[C@@H](Cc1c[nH]c2ccccc12)C(N)=O (Ac-H[dF][Nle]W-NH2)	n
CCCC[C@H](NC(=O)[C@@H](Cc1ccc(Br)cc1)NC(=O)[C@H](Cc1cnc[nH]1)NC(C)=O)C(=O)N[C@@H](Cc1c[nH]c2ccccc12)C(N)=O (Ac-H[dPhe(4-Br)][Nle]W-NH2)	y

====

Each entry below carries its reported EC50.
Target of assay: Melanocyte-stimulating hormone receptor (Homo sapiens)
Assay summary: Agonist activity at human MC1R expressed in HEK293 cells after 3 mins by cAMP assay
Square brackets hold non-standard residues; d marks the D form. Peptide text beside a SMILES is read from it. dPhe(4-CF3) = N[C@H](Cc1ccc(C(F)(F)F)cc1)C(=O)O; dPhe(4-Cl) = N[C@H](Cc1ccc(Cl)cc1)C(=O)O; Nle = CCCC[C@H](N)C(=O)O

Molecule	Target of assay	EC50
CC(=O)N[C@@H](Cc1cnc[nH]1)C(=O)N[C@H](Cc1ccccc1)C(=O)N[C@@H](CCCN=C(N)N)C(=O)N[C@@H](Cc1c[nH]c2ccccc12)C(N)=O	Melanocyte-stimulating hormone receptor (Homo sapiens)	4.3 nM
CCCC[C@H](NC(=O)[C@@H](Cc1ccc(Cl)cc1)NC(=O)[C@H](Cc1cnc[nH]1)NC(C)=O)C(=O)N[C@@H](Cc1c[nH]c2ccccc12)C(N)=O (Ac-H[dPhe(4-Cl)][Nle]W-NH2)	Melanocyte-stimulating hormone receptor (Homo sapiens)	6.5 nM
CCCC[C@H](NC(=O)[C@@H](Cc1ccc(C(F)(F)F)cc1)NC(=O)[C@H](Cc1cnc[nH]1)NC(C)=O)C(=O)N[C@@H](Cc1c[nH]c2ccccc12)C(N)=O (Ac-H[dPhe(4-CF3)][Nle]W-NH2)	Melanocyte-stimulating hormone receptor (Homo sapiens)	10 nM
